experimental_system: HLA-B*51:01
assay_remarks: IEDB peptide-MHC binding, purified MHC/competitive/radioactivity; filed as Kd, often an IC50 or EC50 that approximates it; bounds were set here for any values at or beyond the usual limits of such assays
assay_setup: source organism: Vaccinia virus WR
measure_name: Kd

Please review the following examples before continuing.
| seq_string | Kd |
| --- | --- |
| CPQKKKSQA | ≥ 77.5 µM |
| APKQVAGTGV | ≥ 61 µM |

Proceed to the following item.
GET /value?item= `IPEISSNDNA` &field=Kd returns ≥ 69.6 µM

---

experimental_system: HLA-A*68:01
assay_remarks: IEDB peptide-MHC binding, purified MHC/competitive/radioactivity; filed as Kd, often an IC50 or EC50 that approximates it; bounds were set here for any values at or beyond the usual limits of such assays
assay_setup: source organism: Vaccinia virus WR
pKd: −log10 of the molar value.
Binary classification by pKd, with 7 as an inclusive lower bound for 1 (yes); all other cases are 0 (no).

| seq_string | answer_label |
| --- | --- |
| VLSAATETY | 0 (no) |
| FISDNKKEYK | 1 (yes) |
| CFPSTQRDY | 0 (no) |
| MSSSVDVDIY | 0 (no) |
| QLCYCPASKK | 0 (no) |
| RLTDTEYRAR | 0 (no) |

Exam item: decide whether the reported pKd for `IFYFISIYSR` is at least 7.
1 (yes)

Exam item: decide whether the reported pKd for `GVEDTESIER` is at least 7.
0 (no)

Exam item: decide whether the reported pKd for `VVMHINSPFK` is at least 7.
1 (yes)

Exam item: decide whether the reported pKd for `KAIITPVVFY` is at least 7.
0 (no)

Exam item: decide whether the reported pKd for `ISEKETLNEY` is at least 7.
0 (no)
